The measurements presented in this section are drawn from ChEMBL document CHEMBL1151126.

tested on: Raji; assay: Inhibition of 12-O-tetradecanoylphorbol-13-acetate-induced EBV-early antigen activation in human Raji cells assessed as early antigen induction at 1000 molar ratio after 48 hrs by indirect immunofluorescence technique relative to TPA; format: cell-based; set-up: scale not given: the % may be the effect or the level left; conditions: human gammaherpesvirus 4
Test Readout: Activity (%)
Numbers only, in %.

Answered cases to consult:
So, "COc1ccc(-c2coc3cc(OC(C)=O)c(OC)cc3c2=O)cc1" ? Its Activity was 6

So, COc1ccc(-c2coc3cc(O[C@@H]4O[C@H](CO)[C@@H](O)[C@H](O)[C@H]4O)c(OC)cc3c2=O)cc1 [WISTIN] ? Its Activity was 78.5

So, COc1ccc(-c2coc3cc(O)ccc3c2=O)cc1 [FORMONONETIN] ? Its Activity was 63.6

So, COc1ccc(-c2coc3cc(O[C@@H]4O[C@H](CO)[C@@H](O)[C@H](O)[C@H]4O)ccc3c2=O)cc1 [ONONIN] ? Its Activity was 76

So, COc1ccc(-c2coc3cc(O)c(OC)cc3c2=O)cc1 [CASTANIN] ? Its Activity was 36.4

***
So, "COc1ccc(-c2coc3cc(OC(C)=O)ccc3c2=O)cc1" ? Its Activity was 15.2
